assay system: BRD4 Bromodomain 2 (BRD4 BD2) (Homo sapiens, UniProt O60885)
Construct: 333-460 were cloned, expressed, and purified to homogeneity
test method notes: AlphaScreen binding assay, BRD4 BD2
test parameters: His-tagged BRD4 BD2 100 nM, biotinylated H4 (1-21) K5/8/12/16 tetra-acetylated peptide 100 nM, compounds listed under IC50 range headings
Catalogue of IC50 readings, one per entry.
quantity: IC50

# compound, measured
data = [
    ("CC(=O)N1c2ccc(-c3cnn(C4CC4)c3)c(OCC#N)c2CC[C@@H]1C", "0.05 to 0.5 µM"),
    ("COC(=O)N1c2ccc(-c3cnn(C4CCNCC4)c3)c(Oc3ncc(C4CC4)cn3)c2CC[C@@H]1C", "0.05 to 0.5 µM"),
    ("COC(=O)N1c2ccc(-c3cnn(CCS(C)(=O)=O)c3)c(Oc3ncc(C(F)(F)F)cc3F)c2CC[C@@H]1C", "0.05 to 0.5 µM"),
    ("CC(=O)N1c2ccc(-c3cnn(C4CC4)c3)c(OCC3(C)COC3)c2CC[C@@H]1C", "0.05 to 0.5 µM"),
    ("CC(=O)N1c2ccc(-c3cnn(C4COC4)c3)c(OCCNS(C)(=O)=O)c2CC[C@@H]1C", "0.05 to 0.5 µM"),
    ("CC(=O)N1c2ccc(-c3cnn(C4CCNCC4)c3)c(Oc3ncc(C(F)(F)F)cn3)c2CC[C@@H]1C", "0.05 to 0.5 µM"),
    ("CCCOc1c(-c2ccc(N(C)S(C)(=O)=O)cc2)ccc2c1CC[C@H](C)N2C(C)=O", "0.05 to 0.5 µM"),
    ("CCCOc1c(C2CCN(S(C)(=O)=O)CC2)ccc2c1CC[C@H](C)N2C(C)=O", "≥ 0.5 µM"),
    ("CCCOc1c(-c2ccc(NS(C)(=O)=O)cn2)ccc2c1CC[C@H](C)N2C(C)=O", "0.05 to 0.5 µM"),
    ("CC(=O)N1c2ccc(-c3cnn(C4COC4)c3)c(Oc3nc4ccccc4o3)c2CC[C@@H]1C", "0.05 to 0.5 µM"),
    ("CC(=O)N1c2ccc(-c3cnn(C4COC4)c3)c(OC[C@@H]3CCNC3)c2CC[C@@H]1C", "0.05 to 0.5 µM"),
    ("C[C@H]1CCc2c(ccc(-c3cnn(C4CCNCC4)c3)c2Oc2ccc(C#N)cc2)N1C(=O)C1CC1", "< 0.05 µM"),
    ("CC(=O)N1c2ccc(-c3cnn(C4CC4)c3)c(OCc3ccn(C)n3)c2CC[C@@H]1C", "0.05 to 0.5 µM"),
    ("COC(=O)N1c2ccc(-c3cnn(C4CCNCC4)c3)c(Oc3ccc(C#N)cc3Cl)c2CC[C@@H]1C", "< 0.05 µM"),
    ("COC(=O)N1c2ccc(-c3cnn(CC(C)(C)O)c3)c(OCC(C)C)c2CC[C@@H]1C", "0.05 to 0.5 µM"),
    ("CC(=O)N1c2ccc(-c3cnn(C4CC4)c3)c(Oc3ccccc3F)c2CC[C@@H]1C", "< 0.05 µM"),
    ("CC(=O)N1c2ccc(-c3cnn(C4CC4)c3)c(OCC(F)F)c2CC[C@@H]1C", "< 0.05 µM"),
    ("CC(=O)N1c2ccc(-c3cnn(C4CC4)c3)c(OC(F)C(N)=O)c2CC[C@@H]1C (single isomer, unassigned)", "≥ 0.5 µM"),
    ("COC(=O)N1c2ccc(-c3cnn(C4CCNCC4)c3)c(Oc3ccnc(C(F)(F)F)n3)c2CC[C@@H]1C", "0.05 to 0.5 µM"),
    ("COC(=O)N1c2ccc(-c3cnn(CCS(C)(=O)=O)c3)c(OCC(C)C)c2CC[C@@H]1C", "0.05 to 0.5 µM"),
    ("CC(=O)N1c2ccc(-c3cnn(CCO)c3)c(OCC(=O)N3CCCC3)c2CC[C@@H]1C", "0.05 to 0.5 µM"),
    ("CC(=O)N1c2ccc(-c3cnn(C4CCNCC4)c3)c(Oc3ccc(C#N)cc3)c2CC[C@@H]1C", "< 0.05 µM"),
    ("COC(=O)N1c2ccc(-c3cnn(C4CC4)c3)c(O[C@H](F)C(N)=O)c2CC[C@@H]1C", "0.05 to 0.5 µM"),
    ("CC(=O)N1c2ccc(-c3cnn(C4CC4)c3)c(OC3COC3)c2CC[C@@H]1C", "0.05 to 0.5 µM"),
    ("COC(=O)N1c2ccc(-c3cnn(CCO)c3)c(Oc3ncc(C(F)(F)F)cc3F)c2CC[C@@H]1C", "0.05 to 0.5 µM"),
    ("CC(=O)N1c2ccc(-c3cnn(C4CC4)c3)c(OCC(C)(F)F)c2CC[C@@H]1C", "0.05 to 0.5 µM"),
    ("COC(=O)N1c2ccc(-c3cnn(C4CCNCC4)c3)c(Oc3ccc(C(F)(F)F)cn3)c2CC[C@@H]1C", "0.05 to 0.5 µM"),
    ("COC(=O)N1c2ccc(-c3cnn([C@H]4CCNC[C@H]4F)c3)c(Oc3ccc(F)cc3)c2CC[C@@H]1C", "< 0.05 µM"),
    ("CCCOc1c(-c2nc3ccccc3[nH]2)ccc2c1CC[C@H](C)N2C(C)=O", "0.05 to 0.5 µM"),
    ("CC1CCc2c(ccc(-c3cnn(C4CC4)c3)c2Oc2ccccc2)N1C(=O)C1CC1 (stereo not drawn)", "0.05 to 0.5 µM"),
    ("COC(=O)N1c2ccc(-c3cnn(C4CCNCC4)c3)c(Oc3ccc(C#N)cc3)c2CC[C@@H]1C", "0.05 to 0.5 µM"),
    ("CCCOc1c(-c2ccc3c(c2)CCN3S(C)(=O)=O)ccc2c1CC[C@H](C)N2C(C)=O", "0.05 to 0.5 µM"),
    ("CC(=O)N1c2ccc(-c3cnn(C4CCNCC4)c3)c(Oc3cnccn3)c2CC[C@@H]1C", "< 0.05 µM"),
]

---

Catalogue of pIC50 readings, one per entry.
assay system: BRD4 Bromodomain 1 (BRD4 BD1) (Homo sapiens, UniProt O60885)
Construct: 44-168 and BRD4 BD2
test method notes: AlphaScreen binding assay, BRD4 BD1
test parameters: His-tagged BRD4 BD1 50 nM, biotinylated H4 (1-21) K5/8/12/16 tetra-acetylated peptide 50 nM, compounds listed under IC50 range headings
pIC50: −log10 of the molar value.

# molecule, assay system, pIC50
measured = [
    ("COC(=O)N1c2ccc(-c3cnn([C@H]4CCNC[C@@H]4F)c3)c(OC3CCC3)c2CC[C@@H]1C", "BRD4 Bromodomain 1 (BRD4 BD1) (Homo sapiens, UniProt O60885)", "6.00 to 7.00"),
    ("C[C@H]1CCc2c(ccc(-c3cnn([C@@H]4CCNC[C@@H]4F)c3)c2OC2CCC2)N1C(=O)C1CC1", "BRD4 Bromodomain 1 (BRD4 BD1) (Homo sapiens, UniProt O60885)", "6.00 to 7.00"),
    ("COC(=O)N1c2ccc(-c3cnn(C4CCNCC4)c3)c(OC[C@H]3CCNC3)c2CC[C@@H]1C", "BRD4 Bromodomain 1 (BRD4 BD1) (Homo sapiens, UniProt O60885)", "5.00 to 6.00"),
    ("COC(=O)N1c2ccc(-c3cnn(C4CCNCC4)c3)c(Oc3ncccc3C(F)(F)F)c2CC[C@@H]1C", "BRD4 Bromodomain 1 (BRD4 BD1) (Homo sapiens, UniProt O60885)", "5.00 to 6.00"),
    ("CC(=O)N1c2ccc(-c3cnn(C4CC4)c3)c(OCC3CCC3)c2CC[C@@H]1C", "BRD4 Bromodomain 1 (BRD4 BD1) (Homo sapiens, UniProt O60885)", "6.00 to 7.00"),
    ("C[C@H]1CCc2c(ccc(-c3cnn(C4CCNCC4)c3)c2Oc2ccccc2C#N)N1C(=O)C1CC1", "BRD4 Bromodomain 1 (BRD4 BD1) (Homo sapiens, UniProt O60885)", "6.00 to 7.00"),
    ("COC(=O)N1c2ccc(-c3cnn(C4CCN(C)CC4)c3)c(OC3CCC3)c2CC[C@@H]1C", "BRD4 Bromodomain 1 (BRD4 BD1) (Homo sapiens, UniProt O60885)", "6.00 to 7.00"),
    ("COC(=O)N1c2ccc(-c3cnn(C4CCNCC4)c3)c(Oc3cc(N4CCOCC4)ncn3)c2CC[C@@H]1C", "BRD4 Bromodomain 1 (BRD4 BD1) (Homo sapiens, UniProt O60885)", "≤ 5.00"),
    ("C[C@H]1CCc2c(ccc(-c3cn(C)cn3)c2Oc2ccccc2)N1C(=O)C1CC1", "BRD4 Bromodomain 1 (BRD4 BD1) (Homo sapiens, UniProt O60885)", "6.00 to 7.00"),
    ("CC(=O)N1c2ccc(-c3cnn(C4CC4)c3)c(Oc3ncc4[nH]cnc4n3)c2CC[C@@H]1C", "BRD4 Bromodomain 1 (BRD4 BD1) (Homo sapiens, UniProt O60885)", "5.00 to 6.00"),
    ("COC(=O)N1c2ccc(-c3cnn(C4CC4)c3)c(Oc3ccc(Cl)cc3)c2CC[C@@H]1C", "BRD4 Bromodomain 1 (BRD4 BD1) (Homo sapiens, UniProt O60885)", "5.00 to 6.00"),
    ("CC(=O)N1c2ccc(-c3cnn(C4CCNCC4)c3)c(Oc3ccccn3)c2CC[C@@H]1C", "BRD4 Bromodomain 1 (BRD4 BD1) (Homo sapiens, UniProt O60885)", "6.00 to 7.00"),
    ("COC(=O)N1c2c(F)cc(-c3cn(C)nn3)c(Oc3ccccc3)c2CC[C@@H]1C", "BRD4 Bromodomain 1 (BRD4 BD1) (Homo sapiens, UniProt O60885)", "6.00 to 7.00"),
    ("COC(=O)N1c2ccc(-c3cnn(C4CCNCC4)c3)c(Oc3ccccc3F)c2CC[C@@H]1C", "BRD4 Bromodomain 1 (BRD4 BD1) (Homo sapiens, UniProt O60885)", "6.00 to 7.00"),
    ("CC(=O)N1c2ccc(-c3cnn(CC(C)(C)O)c3)c(OC3CCC3)c2CC[C@@H]1C", "BRD4 Bromodomain 1 (BRD4 BD1) (Homo sapiens, UniProt O60885)", "5.00 to 6.00"),
    ("COC(=O)N1c2ccc(-c3cnn(C4CC4)c3)c(Oc3ccc(C#N)cc3)c2CC[C@@H]1C", "BRD4 Bromodomain 1 (BRD4 BD1) (Homo sapiens, UniProt O60885)", "6.00 to 7.00"),
    ("COC(=O)N1c2ccc(-c3cnn(CCO)c3)c(Oc3ncc(C(F)(F)F)cn3)c2CC[C@@H]1C", "BRD4 Bromodomain 1 (BRD4 BD1) (Homo sapiens, UniProt O60885)", "5.00 to 6.00"),
    ("C[C@H]1CCc2c(ccc(-c3cnn(C4CCNCC4)c3)c2Oc2ccc(F)c(F)c2)N1C(=O)C1CC1", "BRD4 Bromodomain 1 (BRD4 BD1) (Homo sapiens, UniProt O60885)", "6.00 to 7.00"),
    ("C[C@H]1CCc2c(ccc(-c3cnn(C4CNC4)c3)c2OC2CCC2)N1C(=O)C1CC1", "BRD4 Bromodomain 1 (BRD4 BD1) (Homo sapiens, UniProt O60885)", "6.00 to 7.00"),
    ("COC(=O)N1c2ccc(-c3cnn(CC(C)(C)O)c3)c(OCC3CCOCC3)c2CC[C@@H]1C", "BRD4 Bromodomain 1 (BRD4 BD1) (Homo sapiens, UniProt O60885)", "6.00 to 7.00"),
    ("COC(=O)N1c2ccc(-c3csc(C4(F)CCNCC4)n3)c(OC3CCC3)c2CC[C@@H]1C", "BRD4 Bromodomain 1 (BRD4 BD1) (Homo sapiens, UniProt O60885)", "6.00 to 7.00"),
    ("COC(=O)N1c2ccc(-c3cnn(C4CC4)c3)c(Oc3ncc(C(F)(F)F)cn3)c2CC[C@@H]1C", "BRD4 Bromodomain 1 (BRD4 BD1) (Homo sapiens, UniProt O60885)", "5.00 to 6.00"),
    ("C[C@H]1CCc2c(ccc(-c3ncc(C4CCNCC4)[nH]3)c2OC2CCC2)N1C(=O)C1CC1", "BRD4 Bromodomain 1 (BRD4 BD1) (Homo sapiens, UniProt O60885)", "5.00 to 6.00"),
    ("C[C@H]1CCc2c(ccc(-c3cnn(C4CCNCC4)c3)c2Oc2ccccc2F)N1C(=O)C1CC1", "BRD4 Bromodomain 1 (BRD4 BD1) (Homo sapiens, UniProt O60885)", "6.00 to 7.00"),
    ("COC(=O)N1c2ccc(-c3cnn(CCS(C)(=O)=O)c3)c(Oc3ncc(F)cn3)c2CC[C@@H]1C", "BRD4 Bromodomain 1 (BRD4 BD1) (Homo sapiens, UniProt O60885)", "5.00 to 6.00"),
    ("COC(=O)N1c2ccc(-c3cnn(CC(C)(C)O)c3)c(Oc3ncccc3C(F)(F)F)c2CC[C@@H]1C", "BRD4 Bromodomain 1 (BRD4 BD1) (Homo sapiens, UniProt O60885)", "5.00 to 6.00"),
    ("COC(=O)N1c2ccc(-c3cnn(CCO)c3)c(Oc3ncc(F)cn3)c2CC[C@@H]1C", "BRD4 Bromodomain 1 (BRD4 BD1) (Homo sapiens, UniProt O60885)", "5.00 to 6.00"),
    ("CC(=O)N1c2ccc(-c3cnn(CCO)c3)c(OCC3CCOCC3)c2CC[C@@H]1C", "BRD4 Bromodomain 1 (BRD4 BD1) (Homo sapiens, UniProt O60885)", "> 7.00"),
    ("COC(=O)N1c2ccc(-c3cnn(C4CC4)c3)c(OC3CC(F)(F)C3)c2CC[C@@H]1C", "BRD4 Bromodomain 1 (BRD4 BD1) (Homo sapiens, UniProt O60885)", "5.00 to 6.00"),
    ("COC(=O)N1c2ccc(-c3cnn(C4CCNCC4)c3)c(OCC(C)C)c2CC[C@@H]1C", "BRD4 Bromodomain 1 (BRD4 BD1) (Homo sapiens, UniProt O60885)", "6.00 to 7.00"),
    ("CC(=O)N1c2ccc(-c3cnn(C4CC4)c3)c(OCc3cccnc3)c2CC[C@@H]1C", "BRD4 Bromodomain 1 (BRD4 BD1) (Homo sapiens, UniProt O60885)", "5.00 to 6.00"),
    ("COC(=O)N1c2ccc(-c3cnn(CCS(C)(=O)=O)c3)c(OCC(=O)N(C)C)c2CC[C@@H]1C", "BRD4 Bromodomain 1 (BRD4 BD1) (Homo sapiens, UniProt O60885)", "5.00 to 6.00"),
    ("COC(=O)N1c2ccc(-c3cnn(C4CNC4C)c3)c(Oc3ccc(F)cc3)c2CC[C@@H]1C (stereo partly drawn)", "BRD4 Bromodomain 1 (BRD4 BD1) (Homo sapiens, UniProt O60885)", "6.00 to 7.00"),
]

Numbers sourced from patent US10611750B2.
